Just for reference, the RNAGym collection of RNA variant scans (doi:10.7554/elife.80360) is where these values come from.

B1: CPEB3 Ribozyme (parent)
chain: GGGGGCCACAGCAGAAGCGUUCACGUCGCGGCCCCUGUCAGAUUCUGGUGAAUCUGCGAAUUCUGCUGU

# Variants of: B1
# Test Summary: self-cleavage, relative activity (ratio to wild type); higher = more cleavage; co-transcriptional
Binary call on self-cleavage: rule met from 0.6 upward, rule not met beneath that.

Some solved entries appear below for comparison.
{"columns": ["Ordered Residues", "Assigned Category"],
 "data": [
  ["GGGGGCCACAGCAGAAGCGUUCACGUCGCGGCCCCUUUCAGAUUCUGGUGAAUCUCCGAAUUCUGCUGU [G37U G56C]", "rule not met"],
  ["GGGGGCCACAGCAGAAGCGUCCACGUCGCGGCCCCUCUCAGAUUCUGGUGAAUCUGCGAAUUCUGCUGU [U21C G37C]", "rule not met"],
  ["GGGGGCCACAGCAGAUGCGUUCACGUCGCGGCCCCUGUCAGAUUCUGGUGAAUCUGCGAAUUCUGAUGU [A16U C66A]", "rule not met"],
  ["GGGGGCCACUGCAGAAGCGUUCACGUCGCCGCCCCUGUCAGAUUCUGGUGAAUCUGCGAAUUCUGCUGU [A10U G30C]", "rule met"],
  ["GGGGGCCACAGCAGAAGCGUUCACGUCGCGGCCCCUGUCAGAUUCUGGUGAAUCCGCGAAUUCUGCUCU [U55C G68C]", "rule met"],
  ["GGGGGCCACAGGAGAAGCGUUCACGUCGCGGCCCCUGACAGAUUCUGGUGAAUCUGCGAAUUCUGCUGU [C12G U38A]", "rule met"],
  ["GAGGGCCACAGCAGAAGCGUUCACGACGCGGCCCCUGUCAGAUUCUGGUGAAUCUGCGAAUUCUGCUGU [G2A U26A]", "rule not met"],
  ["GGGGGCCACAGCAGAAGCGUUCACGUCGCGGCCCCUGUCAGAUUCUGGUGAAACUGCGUAUUCUGCUGU [U53A A59U]", "rule met"]
]}

Then this variant:
Could you please find out whether GGGGGCCACAGCAGAAGCGUUCACGUCGCGGCCCCUGUUAGAUUCUGGUGAAUCUCCGAAUUCUGCUGU [C39U G56C] has self-cleavage that meets 0.6 or exceeds it?
rule met
